# protocol text: High-throughput drug toxicity screening in the BPDCN cell line Cal-1 (AID 1224825);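 note: cells exposed to compounds for 48 h; 100% = DMSO and 0% = bortezomib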
# details: Cal-1 BPDCN cell viability, qHTS; at 45.8 µM (top of the series) unless noted
Overview of recorded viability (% of control) for various compounds
The reply should contain only the number, in %.

Before answering, review these 5 worked examples.
CN1CCC(COc2cnc(-c3cccc(Cn4nc(-c5cccc(C#N)c5)ccc4=O)c3)nc2)CC1 : 5.37
Cc1nc(NC(=O)N2CCC[C@@H]2C(N)=O)sc1-c1csc(C(C)(C)C)n1 : 55.1
NC(=O)c1nnn(Cc2cc(Cl)c(C(=O)c3ccc(Cl)cc3)c(Cl)c2)c1N : 45.1
CC(C)(CO)[C@@H](O)C(=O)NCCC(=O)O : 107
FC(F)(F)c1ccc(C=Cc2nc(COc3ccc(CCCCn4ccnn4)cc3)co2)cc1 : 17.8

Name the recorded viability (% of control) of the item CC1(C)OC2CC3C4CC(F)C5=CC(=O)C=CC5(C)C4C(O)CC3(C)[C@]2(C(=O)CO)O1 (stereo partly drawn) in your answer.
52

Name the recorded viability (% of control) of the item Cc1ccccc1C(=O)c1ccc(Nc2ccc(Br)cc2N)cc1Cl in your answer.
79.6

Name the recorded viability (% of control) of the item COc1ccc2ccc(=O)oc2c1CC=C(C)C in your answer.
97.4

Name the recorded viability (% of control) of the item O=C1C(c2c(O)[nH]c3ccccc23)=Nc2ccccc21 in your answer.
68.6

Name the recorded viability (% of control) of the item COc1cc2nc(-c3cc(F)ccc3O)nc(N[C@@H]3CNC[C@@H]3C(C)(C)O)c2cc1OC in your answer.
5.24

Name the recorded viability (% of control) of the item CCN(CC)CCCCNc1nc2cc(Cl)c(Cl)cc2nc1-c1ccc(-c2cccs2)s1 in your answer.
4.45

Name the recorded viability (% of control) of the item CCOC(=O)N1CCN([N+]([O-])=NOc2cc(ON=[N+]([O-])N3CCN(C(=O)OCC)CC3)c([N+](=O)[O-])cc2[N+](=O)[O-])CC1 in your answer.
81.2

Name the recorded viability (% of control) of the item C[C@H](c1ccc(F)cc1CCCC(=O)O)N(c1cc(F)ccc1F)S(=O)(=O)c1ccc(Cl)cc1 in your answer.
92.6

Name the recorded viability (% of control) of the item CN(C)CCN(Cc1ccc(Cl)cc1)c1ccccn1 in your answer.
37.6

Name the recorded viability (% of control) of the item O=C(Nc1ccc(OC(F)(F)F)cc1)c1sccc1NCc1ccnc2ccccc12 in your answer.
11.5

Name the recorded viability (% of control) of the item CCCCC(C=O)NC(=O)C(CC(C)C)NC(=O)OCc1ccccc1 (stereo not drawn) in your answer.
62.2

Name the recorded viability (% of control) of the item CN(C)c1ccc(-c2nc3ncc(Cl)c(N4CCN(CC(=O)Nc5nccs5)CC4)c3[nH]2)cc1 in your answer.
8.53

Name the recorded viability (% of control) of the item CC(=O)OCC(=O)[C@@]12OC(C)(C)O[C@H]1C[C@H]1[C@@H]3C[C@H](F)C4=CC(=O)C=C[C@]4(C)[C@@]3(F)[C@@H](O)C[C@@]12C in your answer.
56.5

Name the recorded viability (% of control) of the item CC(C)n1c(C=C[C@H](O)C[C@H](O)CC(=O)O)c(-c2ccc(F)cc2)c2ccccc21 in your answer.
66.9

Name the recorded viability (% of control) of the item Cn1c(=O)c(Oc2ccc(F)cc2F)cc2cnc(NC3CCOCC3)nc21 in your answer.
93.3

Name the recorded viability (% of control) of the item CC[C@]1(O)C[C@H]2CN(CCC3=c4ccccc4=N[C]3[C@@](C(=O)OC)(c3cc4c(cc3OC)N(C)[C@H]3[C@@](O)(C(N)=O)[C@H](O)[C@]5(CC)C=CCN6CC[C@]43[C@@H]65)C2)C1 in your answer.
14.9

Name the recorded viability (% of control) of the item Cc1c(C(=O)Nc2ccc(N3C[C@@H](C)O[C@@H](C)C3)nc2)cccc1-c1ccc(OC(F)(F)F)cc1 in your answer.
53.5

Name the recorded viability (% of control) of the item COc1ccc(-c2cc3nccn3c(Nc3ncccc3C(N)=O)n2)cc1OC in your answer.
26.1

* * *

# protocol text: Quantitative High-Throughput drug screen in 47 multiple myeloma cell lines against the NCATS MIPE library collection: FR4_PLB cell viability assay (AID 1918924; note: nearly all actives have a fitted effect of over 35% in size)
# details: FR4_PLB myeloma cells viability, CellTiter-Glo ATP, 48 h; series mostly up to 45.8 µM
Records with an inconclusive call do not appear. The source made the active and inactive calls. Calls follow the shape of the dose curve; as a rule, active = well fitted cell-killing curve with a large enough effect; inconclusive = small, poorly fitted or top-dose-only effect, or effect the other way; inactive = no such curve, though single readings can be large or run the other way.
Write down one outcome, taken from YES (active), NO (inactive)

Some entries whose results are on file:
O=c1[nH]nc(OCCCc2ccc(Cl)cc2)c(NCc2cccnc2)c1Br : YES
CN(C)c1ccc(-c2nc3ncc(Cl)c(N4CCN(CC(=O)Nc5nccs5)CC4)c3[nH]2)cc1 : YES
Clc1ccc(C2(c3ccc(-c4cn[nH]c4)cc3)CCNCC2)cc1 : YES
NC(N)=Nc1nc(CSCCC(N)=NS(N)(=O)=O)cs1 : NO
CC1(COc2ccc3c(c2)ncn3-c2ccc3cccc(N4CCC(N)CC4)c3n2)COC1 : YES
O=C1NC(=O)C(=Cc2ccc(-c3ccc(F)cc3O)o2)S1 : NO
O=C1CCCC(=O)C1C(=O)c1ccc(C(F)(F)F)cc1[N+](=O)[O-] : NO
O=C1C(c2c(O)[nH]c3ccccc23)=Nc2ccccc21 : YES

So what was the verdict on Cc1cn([C@@H]2C[C@@H](O)[C@H](CO)O2)c(=O)[nH]c1=O in this test?
NO

So what was the verdict on NC(=O)c1noc([C@H](CCCC2CCCCC2)CC(=O)NO)n1 in this test?
YES

So what was the verdict on CNc1nc(Nc2ccc(C(=O)N3CCOCC3)cc2OC)ncc1Cl in this test?
NO

So what was the verdict on CCCCCCCCCCCCCCCC(=O)O[C@H]1[C@@H](O)[C@@H](O)[C@@H]([C@H](NC(=O)[C@@H]2C[C@@H](CCC)CN2C)[C@H](C)Cl)O[C@@H]1SC in this test?
NO

So what was the verdict on CN1CCN2c3ncccc3Cc3ccccc3C2C1 (stereo unspecified) in this test?
NO

So what was the verdict on N[C@@H](CC(=O)N1CCn2c(nnc2C(F)(F)F)C1)Cc1cc(F)c(F)cc1F in this test?
NO

So what was the verdict on CN1C(=O)C[C@H](C(=O)N[C@@H](Cc2cnc[nH]2)C(=O)N2CCC[C@@H]2C(N)=O)NC1=O in this test?
NO

* * *

# protocol text: qHTS Screen of the MIPE 4.0 Collection Against Ewings Sarcoma (TC32) (AID 1259256); note: nearly all actives have a fitted effect of over 45% in size
# details: TC32 Ewing sarcoma viability, CellTiter-Glo, 48 h; series mostly up to 45.8 µM
# Method: There is a large unmet medical need for treatments for Ewing sarcoma, a pediatric sarcoma. […] Using the NCATS developed oncology compound library called the Mechanism of Interrogation Plate (MIPE), four Ewing sarcoma cell lines were evaluated (TC32, TC71, RDES, EW8). Compounds, in a 12-point titration series, were incubated with cells for 48 hours and the read out was cell viability (CellTiter-Glo from Promega). […]
Records with an inconclusive call do not appear. Active and inactive are the calls of the source. Calls follow the shape of the dose curve; as a rule, active = well fitted inhibition curve with a large enough effect; inconclusive = small, poorly fitted or top-dose-only effect; inactive = no such curve, though single readings can be large or run the other way.
Write down one outcome, taken from class 1 = active, class 0 = inactive

Some entries whose results are on file:
COc1cc(Nc2nc3ccccc3nc2NS(=O)(=O)c2ccc(NC(=O)c3ccc(C)c(OC)c3)cc2)cc(OC)c1 : class 1
Cc1cc(C(C)Nc2ccccc2)c2nc(N3CCOCC3)cc(=O)n2c1 (stereo unspecified) : class 1
CO[C@@H]1C(N(C)C(=O)c2ccccc2)C[C@H]2O[C@]1(C)n1c3ccccc3c3c4c(c5c6ccccc6n2c5c31)C(=O)NC4=O (stereo partly specified) : class 1
O=C1NC(=O)C(=Cc2ccc(-c3ccc(F)cc3O)o2)S1 : class 1
CNC(=O)[C@H](Cc1ccccc1)NC(=O)[C@H](CC(C)C)[C@H](CSc1cccs1)C(=O)NO : class 0
C[C@@H]1[C@H](C)CC[C@]2(C(=O)O)CC[C@]3(C)C(=CC[C@@H]4[C@@]5(C)CC[C@H](O)C(C)(C)[C@H]5CC[C@]43C)[C@@H]12 : class 1
CN(C(Cc1ccc(OS(=O)(=O)c2cccc3cnccc23)cc1)C(=O)N1CCN(c2ccccc2)CC1)S(=O)(=O)c1cccc2cnccc12 (stereo unspecified) : class 1
O=C(c1ccc(F)c(F)c1Nc1ccc(I)cc1F)N1CC(O)([C@H]2CCCCN2)C1 : class 1
CCCCn1c(=O)n(Cc2ccccc2F)c(=O)c2[nH]c(Cc3ccc(NC(C)=O)cc3)nc21 : class 0
Cc1cccc(-c2[nH]c(C(C)(C)C)nc2-c2ccc3c(c2)OCO3)n1 : class 1

So what was the verdict on Cc1ccc(S(=O)(=O)OCC(=O)Nc2ccc(C(=O)O)c(O)c2)cc1 in this test?
class 1

So what was the verdict on C[C@@H]1[C@H](O)[C@@H](C)C=CC=CC=CC=CC=CC=CC=C[C@H](O[C@@H]2O[C@H](C)[C@H](O)[C@H](N)[C@@H]2O)C[C@@H]2O[C@](O)(C[C@@H](O)C[C@@H](O)[C@H](O)CC[C@@H](O)C[C@@H](O)CC(=O)O[C@H]1C)C[C@H](O)[C@@H]2C(=O)O in this test?
class 1

So what was the verdict on CC1=C[C@@H]2[C@@H]([C@@H](O)C[C@@]3(C)[C@H]2C[C@@H](C)[C@]3(O)C(=O)CO)[C@@]2(C)Cc3cnn(-c4ccccc4)c3C=C12 in this test?
class 1

So what was the verdict on Nc1ncnc2c1c(-c1cccc(OCc3ccccc3)c1)cn2C1CC(CN2CCC2)C1 (stereo unspecified) in this test?
class 1

So what was the verdict on CC(C)[C@H](O)C(=O)N[C@@H](C)C(=O)N[C@@H]1C(=O)N(C)CCc2ccccc21 in this test?
class 0

Data provenance is PubChem BioAssay (NCATS).
